Experimental target: human Tissue Factor on MDA-MB-231 cells (human, UniProt P13726 33-295)
Test summary: cell-based or functional assay
Recorded endpoint: % IL8, 2.56 nM Ab (%)
Number in %, nothing else.

query: Need % IL8, 2.56 nM Ab, item 39A (antibody, V domains shown, Human anti-TF IgG1) VH: QVQLVQSGAEVKKPGSSVKVSCKASGGTFSSNAIGWVRQAPGQGLEWMGSIIPIIGFANYAQKFQGRVTITADESTSTAYMELSSLRSEDTAVYYCARDSGYYYGASSFGMDVWGQGTTVTVSS VL: EIVMTQSPATLSVSPGERATLSCRASQSVSSNLAWYQQKPGQAPRLLIYGASTRATGIPARFSGSGSGTEFTLTISSLQSEDFAVYYCEQYNNLPLTFGGGTKVEIK
result: 52

query: Consider the binder 25A3 (antibody, human IgG1, kappa, V domains shown) VH: QVQLVQSGAEVKKPGASVKVSCKASGYTFDVYGISWVRQAPGQGLEWMGWIAPYSGNTNYAQKLQGRVTMTTDTSTSTAYMELRSLRSDDTAVYYCARDAGTYSPFGYGMDVWGQGTTVTVSS VL: DIQMTQSPSTLSASVGDRVTITCQASQSINNWLAWYQQKPGKAPKLLIYKAYNLESGVPSRFSGSGSGTEFTLTISSLQPDDFATYYCQLFQSLPPFTFGGGTKVEIKR and give its measured % IL8, 2.56 nM Ab.
result: 47
